# System: human neonatal skin fibroblasts (CCD-27SK, ATCC CRL-1475)
# PROTOCOL DESCRIPTION: Starvation (serum deprivation) stress, neutral red uptake viability
# Assay type: cell-based
# TEST SETTINGS: D8 after serum deprivation; 10 mg/mL; positive control with 5% FBS (Table 3)
PROPERTY NAME: Percentage of viability (%)

Cl.Cl.N[C@@H](CCCCNCC(F)(F)C1(O)O[C@H](CO)[C@H](O)[C@H](O)[C@H]1O)C(=O)O (stereo partly shown)	102
C[C@H](NC(=O)[C@@H](N)CCCCNCC(F)(F)C1(O)O[C@H](CO)[C@H](O)[C@H](O)[C@H]1O)C(=O)NCC(=O)O.Cl.Cl (stereo partly shown)	64
C[C@H](NC(=O)[C@H](C)NC(=O)[C@@H](N)CCCNCC(F)(F)C1(O)O[C@H](CO)[C@H](O)[C@H](O)[C@H]1O)C(=O)O.Cl.Cl (stereo partly shown)	74
C[C@H](NC(=O)CNC(=O)[C@@H](N)CCCCNCC(F)(F)C1(O)O[C@H](CO)[C@H](O)[C@H](O)[C@H]1O)C(=O)O.Cl.Cl (stereo partly shown)	108
Cl.Cl.N[C@@H](CCCCNCC(F)(F)C1(O)O[C@H](CO)[C@H](O)[C@H](O)[C@H]1O)C(=O)NCC(=O)NCC(=O)O (stereo partly shown)	95
C[C@H](N)C(=O)N[C@@H](CCCCNCC(F)(F)C1(O)O[C@H](CO)[C@H](O)[C@H](O)[C@H]1O)C(=O)N[C@@H](C)C(=O)O.Cl.Cl (stereo partly shown)	88
C[C@H](NC(=O)[C@@H](N)CCCCNCC(F)(F)C1(O)O[C@H](CO)[C@H](O)[C@H](O)[C@H]1O)C(=O)N1CCC[C@H]1C(=O)O.Cl.Cl (stereo partly shown)	103
